Target Or Test System: T1, RBFOX1 RRM (Homo sapiens, UniProt Q9NWB1 109-208)
T1 sequence: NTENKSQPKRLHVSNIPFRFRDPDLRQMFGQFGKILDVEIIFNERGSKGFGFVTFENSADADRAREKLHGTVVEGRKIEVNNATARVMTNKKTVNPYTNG
Assay Notes: EMSA; HiTS-Eq, 1 nM pool, 10 min; buffer printed only for the single-RNA assays: 10 mM Tris pH 7.5, 150 mM NaCl, 3.4 mM EDTA, 0.001% NP-40, 30 C
Experimental Setup: tags: His6 N-terminal (pET28a); label: 5' 32P
The full ranking holds about 16,000 sequences; the median of “ka relative to ugcaugu” is about 0.0091, and the highest 2% start at about 0.032. The full list was thinned out, with the highest values kept by preference.
Test Readout: binding signal

Some binders with known binding signal results, for comparison:
[
  {
    "Binder": "UGGCGUC (DNA:RNA) RNA: GGGAGACCGGAAUUCAGAUUGUCCUGGCGUCUUAAAUCCCGUCGUAGCCACCA DNA 1: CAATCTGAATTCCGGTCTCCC DNA 2: TGGTGGCTACGACGGGATT",
    "Data Value": "0.0251 KA relative to UGCAUGU"
  },
  {
    "Binder": "UGGCGUA (DNA:RNA) RNA: GGGAGACCGGAAUUCAGAUUGUCCUGGCGUAUUAAAUCCCGUCGUAGCCACCA DNA 1: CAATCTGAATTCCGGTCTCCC DNA 2: TGGTGGCTACGACGGGATT",
    "Data Value": "0.0143 KA relative to UGCAUGU"
  },
  {
    "Binder": "UGGCGUG (DNA:RNA) RNA: GGGAGACCGGAAUUCAGAUUGUCCUGGCGUGUUAAAUCCCGUCGUAGCCACCA DNA 1: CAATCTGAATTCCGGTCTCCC DNA 2: TGGTGGCTACGACGGGATT",
    "Data Value": "0.0332 KA relative to UGCAUGU"
  }
]

Enquiry: What value of binding signal has been recorded for this entry: UUGCUGG (DNA:RNA) RNA: GGGAGACCGGAAUUCAGAUUGUCCUUGCUGGUUAAAUCCCGUCGUAGCCACCA DNA 1: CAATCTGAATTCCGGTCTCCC DNA 2: TGGTGGCTACGACGGGATT
Return: 0.0302 KA relative to UGCAUGU
